ASSAYED SYSTEM: recombinant renin in human plasma (Homo sapiens, UniProt P00797)
Construct: purchased Proteos
Sequence (P00797 67-406): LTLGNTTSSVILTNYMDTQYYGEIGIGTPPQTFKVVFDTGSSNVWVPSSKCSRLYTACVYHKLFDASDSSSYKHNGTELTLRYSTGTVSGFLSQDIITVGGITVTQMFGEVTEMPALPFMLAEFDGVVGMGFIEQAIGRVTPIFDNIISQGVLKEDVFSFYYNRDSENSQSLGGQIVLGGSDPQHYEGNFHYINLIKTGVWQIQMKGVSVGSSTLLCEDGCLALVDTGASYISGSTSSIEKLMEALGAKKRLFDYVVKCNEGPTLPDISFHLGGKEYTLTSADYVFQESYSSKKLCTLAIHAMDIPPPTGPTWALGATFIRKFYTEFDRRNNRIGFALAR
MEASUREMENT PROTOCOL: Inhibition of renin in human plasma (QFRET, plasma)
Assay type: biochemical
SETUP CONDITIONS: human EDTA plasma with 1 nM recombinant renin added; 37° C., 1 hour
Each entry below carries its recorded IC50.
Provide only the numeric value, understood in nM.

Answered examples (6):
[
  {
    "MOLECULE": "COC[C@H](C)COCc1ccc([C@@]2(O)CCNC[C@@H]2c2ccc(-c3ccccc3CCNC(C)=O)cc2C)nc1",
    "MEASURED ATTRIBUTE": "IC50",
    "MEASURED RESULT": 3.8
  },
  {
    "MOLECULE": "Cc1cc(-c2ccccc2CCNS(C)(=O)=O)ccc1[C@H]1CNCC[C@@H]1c1cc(F)cc(F)c1 (racemic)",
    "MEASURED ATTRIBUTE": "IC50",
    "MEASURED RESULT": 1810
  },
  {
    "MOLECULE": "O[C@]1(c2ccc(F)c(F)c2)CCNC[C@@H]1c1onc(-c2ccccc2Cl)c1Br",
    "MEASURED ATTRIBUTE": "IC50",
    "MEASURED RESULT": 27
  },
  {
    "MOLECULE": "O[C@]1(c2ccc(F)c(F)c2)CCNC[C@@H]1c1cc(-c2ccc(F)cc2Br)no1",
    "MEASURED ATTRIBUTE": "IC50",
    "MEASURED RESULT": 8650
  },
  {
    "MOLECULE": "CC(=O)NCCc1ccccc1-c1ccc([C@H]2CNCC[C@]2(O)c2ccc(COCCOC(C)C)cc2)c(C)c1 (racemic)",
    "MEASURED ATTRIBUTE": "IC50",
    "MEASURED RESULT": 3.8
  },
  {
    "MOLECULE": "COC[C@H](C)COc1ccc([C@@]2(O)CCNC[C@@H]2c2ccc(-c3ccccc3CCNC(C)=O)cc2C)cc1",
    "MEASURED ATTRIBUTE": "IC50",
    "MEASURED RESULT": 18
  }
]

Looking up COCCCc1ccccc1-c1ccc([C@H]2CNCC[C@@H]2c2ccn(C)c(=O)c2)c(Cl)c1 (racemic) , I see its IC50 listed as 80

Looking up Cc1cc(-c2ccccc2CCN)ccc1[C@H]1CNCC[C@@H]1c1cc(F)cc(F)c1 (racemic) , I see its IC50 listed as 1040

Looking up CC(=O)NCCc1c(F)cccc1-c1onc([C@H]2CNCC[C@]2(O)c2ccc(F)c(F)c2)c1Br , I see its IC50 listed as 0.62

Looking up CC(=O)NCCc1cc(F)ccc1-c1onc([C@H]2CNCC[C@]2(O)c2ccc(F)c(F)c2)c1Br , I see its IC50 listed as 0.68

Looking up COC[C@H](C)COCc1ccc([C@@]2(O)CCNC[C@@H]2c2ccc(-c3ccccc3CCNC(C)=O)cc2C)cc1 [Structure 129] , I see its IC50 listed as 0.44

Looking up Cc1cc(-c2ccccc2CCNC(=O)OCc2ccccc2)ccc1[C@H]1CNCC[C@@H]1c1cc(F)cc(F)c1 (racemic) , I see its IC50 listed as 5470

Hey, just so you know, these numbers are from patent US20120035214A1.
